Target: Neuropeptide S receptor (Homo sapiens, UniProt Q6W5P4)
Sequence (Q6W5P4 whole entry): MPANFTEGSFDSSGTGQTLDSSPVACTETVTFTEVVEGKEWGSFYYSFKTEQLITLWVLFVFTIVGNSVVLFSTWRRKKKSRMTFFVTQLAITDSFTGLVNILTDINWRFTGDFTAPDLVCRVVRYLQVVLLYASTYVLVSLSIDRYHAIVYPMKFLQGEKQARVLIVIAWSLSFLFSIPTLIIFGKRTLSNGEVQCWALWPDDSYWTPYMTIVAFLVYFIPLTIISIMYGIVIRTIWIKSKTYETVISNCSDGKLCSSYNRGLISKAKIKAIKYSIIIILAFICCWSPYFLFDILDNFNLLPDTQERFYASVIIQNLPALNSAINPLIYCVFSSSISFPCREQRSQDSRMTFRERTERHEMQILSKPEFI
Test: Displacement of [125I]Tyr10-NPS from human neuropeptide S receptor expressed in CHO cells after 1.5 hrs by liquid scintillation counting
Format: cell-based
endpoint: pIC50
In plain terms, pIC50 is the concentration in mol/L turned into minus its base-10 logarithm.

Example molecules with recorded pIC50:
1. O=C(NCc1ccc(F)cc1)N1CCN2C(=O)OC(c3ccccc3)(c3ccccc3)C2C1 (stereo not drawn)	7.60
2. Cc1c(P(=S)(c2ccccc2)c2ccccc2)n2ccccc2[n+]1C/C=C/c1ccccc1.[Br-]	8.46

Lookup result for CCC(C)(CCN1CCOCC1)N(Cc1cc2ccccc2n(C)c1=O)C(=O)C1CCCCC1 (stereo not drawn) ; measured pIC50: 8.17
